Parameter: Min cell viability %, BT20/H_LIV-1 Low. Scope: all listed entries.
assay.system: T1, human LIV-1 (human, UniProt Q13433 29-755)
T1 sequence (looked up): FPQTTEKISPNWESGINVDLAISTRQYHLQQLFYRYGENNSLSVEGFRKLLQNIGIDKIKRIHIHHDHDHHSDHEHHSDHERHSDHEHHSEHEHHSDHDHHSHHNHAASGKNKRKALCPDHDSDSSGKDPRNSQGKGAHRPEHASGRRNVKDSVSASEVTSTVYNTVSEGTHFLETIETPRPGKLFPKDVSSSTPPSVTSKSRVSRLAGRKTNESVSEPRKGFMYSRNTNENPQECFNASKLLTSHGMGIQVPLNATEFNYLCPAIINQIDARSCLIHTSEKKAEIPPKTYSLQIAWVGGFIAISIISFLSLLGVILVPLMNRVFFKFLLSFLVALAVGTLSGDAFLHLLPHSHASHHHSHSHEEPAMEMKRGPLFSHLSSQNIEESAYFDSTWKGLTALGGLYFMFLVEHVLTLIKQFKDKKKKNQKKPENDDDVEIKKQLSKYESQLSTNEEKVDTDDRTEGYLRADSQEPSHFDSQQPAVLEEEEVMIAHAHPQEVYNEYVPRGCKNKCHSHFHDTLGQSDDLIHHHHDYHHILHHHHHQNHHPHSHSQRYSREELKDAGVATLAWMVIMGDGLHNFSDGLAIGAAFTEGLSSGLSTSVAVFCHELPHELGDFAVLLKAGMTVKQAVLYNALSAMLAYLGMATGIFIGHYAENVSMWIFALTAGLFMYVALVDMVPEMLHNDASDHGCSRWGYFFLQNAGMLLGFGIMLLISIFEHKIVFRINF
method.description: cell-based or functional assay
Give the number; % is assumed, so skip it.

// below: answered binders
{"binder": "5D6B10.z7-MMAE (antibody, V domains shown, MMAE drug moiety conjugated; site and chain not stated, Antibody-drug conjugate of 5D6B10.z7; human gamma 1/kappa) VH: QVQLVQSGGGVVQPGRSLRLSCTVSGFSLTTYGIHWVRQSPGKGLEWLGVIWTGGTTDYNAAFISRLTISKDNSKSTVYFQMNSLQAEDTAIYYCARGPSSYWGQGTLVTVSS VL: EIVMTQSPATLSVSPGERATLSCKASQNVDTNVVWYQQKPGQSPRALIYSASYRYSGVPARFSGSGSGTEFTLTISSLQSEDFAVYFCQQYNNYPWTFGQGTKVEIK", "Min cell viability %, BT20/H_LIV-1 Low [%]": 43.5}
{"binder": "124H4D11.p2.z4-MMAE (antibody, V domains shown, MMAE drug moiety conjugated; site and chain not stated, Antibody-drug conjugate of 124H4D11.p2.z4; human gamma 1/kappa) VH: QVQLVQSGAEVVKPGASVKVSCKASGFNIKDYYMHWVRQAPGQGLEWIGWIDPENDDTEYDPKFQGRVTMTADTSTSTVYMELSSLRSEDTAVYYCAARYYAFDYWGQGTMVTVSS VL: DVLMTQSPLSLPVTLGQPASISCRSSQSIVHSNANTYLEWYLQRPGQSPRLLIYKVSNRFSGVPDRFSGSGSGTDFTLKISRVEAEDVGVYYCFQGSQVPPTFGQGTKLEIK", "Min cell viability %, BT20/H_LIV-1 Low [%]": 40.3}

// switching to the query binder
Min cell viability %, BT20/H_LIV-1 Low lookup needed for 5D6B10.z7-Eribulin (antibody, V domains shown, Eribulin drug moiety conjugated; site and chain not stated, Antibody-drug conjugate of 5D6B10.z7; human gamma 1/kappa) VH: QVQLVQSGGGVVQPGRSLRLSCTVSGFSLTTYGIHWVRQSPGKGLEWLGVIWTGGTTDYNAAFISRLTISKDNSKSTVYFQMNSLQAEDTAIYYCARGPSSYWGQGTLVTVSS VL: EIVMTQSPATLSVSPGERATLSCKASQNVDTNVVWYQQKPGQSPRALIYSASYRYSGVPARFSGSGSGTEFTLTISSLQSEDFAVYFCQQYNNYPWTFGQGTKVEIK , thanks.
42.9
